assay: Evaluation of biological availability (bioavailability) in rat; assay type: in vivo; details: rat; oral administration 10 mg/kg, fasted female SD rats, plasma
Recorded measurements of AUC, one per entry
Provide the reading as a plain figure in ng·h/mL.

>>> measured_value("CCn1cc(CN(C(=O)C2CCCc3c(O)cccc32)c2ccc(C(C)C)nc2)cn1 (racemic) [racemate of the compound of Example 3, reference compound]")
572

Input CCn1cc(CN(C(=O)[C@H]2CCCc3c(O)cccc32)c2ccc(C(C)C)nc2)cn1 . Output AUC: 1640

* * *

Recorded measurements of IC50, one per entry
Target: C5a receptor (Homo sapiens)
Construct: neutrophil fraction was separated from human peripheral intravenous blood; endogenous in cells
Sequence (P21730 1-350): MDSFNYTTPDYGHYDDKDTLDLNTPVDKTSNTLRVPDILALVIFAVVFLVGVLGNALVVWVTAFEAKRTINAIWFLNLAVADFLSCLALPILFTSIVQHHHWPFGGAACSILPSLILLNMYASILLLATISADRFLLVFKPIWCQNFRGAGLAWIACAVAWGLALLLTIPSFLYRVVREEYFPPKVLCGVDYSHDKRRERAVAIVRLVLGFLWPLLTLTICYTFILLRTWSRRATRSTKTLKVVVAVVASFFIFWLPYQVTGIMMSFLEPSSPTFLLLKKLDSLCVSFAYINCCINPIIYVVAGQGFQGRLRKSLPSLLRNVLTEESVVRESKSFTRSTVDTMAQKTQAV
Test: C5a receptor binding assay ([125I]-human C5a, human peripheral blood neutrophil)
Details: [125I]-C5a 200 pM, 4° C. for 2 hr, read-out: IC50 value, inhibition of [125I]-human C5a binding
Provide the reading as a plain figure in nM.

>>> measured_value("CCn1cc(CN(C(=O)C2CCCc3c(O)cccc32)c2ccc(C(C)C)nc2)cn1 (racemic) [racemate of the compound of Example 3, reference compound]")
23

Next up:
Input CCn1cc(CN(C(=O)[C@H]2CCCc3c(O)cccc32)c2ccc(C(C)C)nc2)cn1 . Output IC50: 10

* * *

Recorded measurements of AUC, one per entry
experiment: Evaluation of biological availability (bioavailability) in rat; type: in vivo; conditions: rat; intravenous administration 1 mg/kg, fasted female SD rats, plasma
A complete answer gives the number and then names the unit.

>>> measured_value("CCn1cc(CN(C(=O)[C@H]2CCCc3c(O)cccc32)c2ccc(C(C)C)nc2)cn1")
"264 ng·h/mL"

Next up:
Input CCn1cc(CN(C(=O)C2CCCc3c(O)cccc32)c2ccc(C(C)C)nc2)cn1 (racemic) [racemate of the compound of Example 3, reference compound] . Output AUC: 289 ng·h/mL

# credit: patent US20080194640A1
